System: hT40, dGA, dGAE and truncated tau fragments
assay method text: Binding ELISA / epitope mapping of anti-tau scAbs with truncated tau proteins and 13mer peptides
Parameters: species or system human
setup conditions: Table 28 (LoD table); residues of hT40
readout label: Detection scAb (Epitope)

**Query** Note Detection scAb (Epitope) for the molecule shown: 412E10: C-terminal anti-tau clone, Table 5; SEQ ID NO: 147 (protein, 412E10 amino acid sequence) QVQLQESGPSLVKPSQTLSLTCTVSGFSVISDSVAWVRQAPGKVPEWLGASGSSGNKYYNPALKSRLSITRDTSKSQVSLSLSSVTTEDTAVYYCARGIIAGVDVWGRGLLVTVSSEGKSSGASGESKVDDQAVLTQPSSVSGSLGQRVSITCSGSSSNVGYGNYVGWYQQVPGSAPKLLIYGTAIRASGVPDRFSGSRSGDTATLTITSLQAEDEADYYCASYQSNYAFFGSGTRLTVLG
**Result** 412E10 (412-441)
